# credit: the supplement of paper PMC9170038

Below, each entry is listed with its recorded apparent KD of K4 kissing-loop reporter.
Test system: K4 kissing-loop RNA reporter;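 note: bound reporter read as fluorescence of individual clusters on recovered sequencing chips by microscopy, with normalized cluster intensities fitted with a binding model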
Experiment: apparent KD of K4 kissing-loop reporter; higher = weaker reporter binding
Conditions: Eterna round: R107; input ligand: FMN 200 uM
Provide the reading as a plain figure in nM.

Recorded apparent KD of K4 kissing-loop reporter (sequence GGUGCUGUUUGUGCCGCCUUCCUCGUUCCUCGAGGACCGGUACGGCCGCCACUCGAGUGAUGUUUGGGUAGCGAUCCCUGCUAGC [Bdazzled - #14 Exc. Tryptophan A] ): 470

Recorded apparent KD of K4 kissing-loop reporter (sequence GGAGUUACCUGGGAUACCAGUCGGAGUCUCAGAGCACAGAGUGAUGUUCUGGGAUGUUUCGGCCCUUGGCAGCUCUGGGACUCCA [#2 Exclusion - Theophylline B Attempt #14 (HarryS)] ): 386

Recorded apparent KD of K4 kissing-loop reporter (sequence AUUUUGAGUGAUGUUCAUAUCUAUUCUGAAGGAGCGCUAAAUAAGGCAGGUAGGUCGCGGAAUAUAUAUAUAUAUAUAUAUAUAU [KL-SSArg-A30] ): 538

Recorded apparent KD of K4 kissing-loop reporter (sequence GCCGUACGCAUGGAUACCAGCGCUCGUCACCUAGCAGUGAUGUUGCUAAUGCCACGAGGACGCCCUUGGCAGCCAUGCGUACGGC ): 116

Recorded apparent KD of K4 kissing-loop reporter (sequence UCCUAGGCUCGAAAGAGCCUAGGAUUAACUCAGGAUAUCCGGAAACGGAGAAGGGAGUAACUAGUGAUGUUAGGGAUUCCCUAUU ): 208

Turning now to a further sequence:
Recorded apparent KD of K4 kissing-loop reporter (sequence GUAGACAGACUGCAAGCCUAGUCUACAGACUAGGAUAUCAGGAAACUGAGAAGGAGUCUACUUGCAGUGAUGUUGCAAGAAUAAU [[F]''-[K]'-[F]'-[F1]-[F2]-[K1]-[K2]_Design4] ): 146
